Each recorded value in this set is attributed to patent US5362740A.

biological target: 5-HT3 receptor; test: Inhibition of the binding of ^3 H-GR65630; 5-HT3 binding affinity for rat entorhinal cortex; conditions: [^3 H] GR 65630 labeled 5HT3 sites; rat entorhinal cortex; two site non-linear fitting, low

# COMPOUND, Ki, nM
records = [
    ("CN1C2CCCC1CC(NC(=O)c1cc(Cl)c(N)c3c1OCC3)C2 (centres unmarked) [FCE 27270]", 39),
    ("CN1C2CCC1CC(NC(=O)c1cc(Cl)c(N)c3c1OCC3)C2 (centres unmarked) [FCE 27271]", 96.2),
]
